tested on: UO-31 renal; assay: NCI-60 one-dose screen, 48 h (100 = growth as untreated, 0 = no growth, -100 = all killed); details: 10 µM unless noted
Compounds without any hit were thinned out: in the full panel of roughly 83,000, 20% have a hit.
Recorded metric: growth (%)

{"Compound": "O=C1Nc2ccccc2C12Nc1cc(Cl)ccc1S2 (stereo unspecified)", "Tested on": "UO-31 renal", "Recorded metric": "growth", "Scale unit": "%", "Number": 69.6}
{"Compound": "NC(N)=NN=c1c(=O)c2ccccc2c1=O", "Tested on": "UO-31 renal", "Recorded metric": "growth", "Scale unit": "%", "Number": 64.8}
{"Compound": "O[C@@H]1Cc2ccc3ccccc3c2N[C@H](c2ccoc2)C1", "Tested on": "UO-31 renal", "Recorded metric": "growth", "Scale unit": "%", "Number": 82.3}
{"Compound": "COc1ccc2c(c1)/C(=C\\c1c[nH]c3ccc(F)cc13)C(=O)N2", "Tested on": "UO-31 renal", "Recorded metric": "growth", "Scale unit": "%", "Number": 57.8}
{"Compound": "Cc1ccc([N+](=O)[O-])cc1NC(=O)Nc1cccc(F)c1", "Tested on": "UO-31 renal", "Recorded metric": "growth", "Scale unit": "%", "Number": 67.7}
{"Compound": "COc1ccc(Nc2nccc(N3CCN(c4c5ccc(Cl)cc5nc5ccc(OC)cc45)CC3)n2)cc1", "Tested on": "UO-31 renal", "Recorded metric": "growth", "Scale unit": "%", "Number": 47.5}
